The origin of these recorded values is PubChem BioAssay AID372.

I'd be grateful if you could share measured inhibition for these entries.
# assay.system: Gag-Pol polyprotein (Human immunodeficiency virus type 1 group M subtype B (isolate HXB2))
# assay.summary: RNase H inhibition, HIV 1 Gag Pol polyprotein, FRET biochemical assay, screening (AID 372)
# conditions: HIV-1 RT RNase H, FRET RNA/DNA substrate fluorescence; at 10 µM; active compounds read high
Among all 100,000 compounds or so, about 770 (0.77%) were called active. The entries come from a sample that favours actives as a whole.
Use % as the unit, but write only the number.

q: Supply measured inhibition of COc1ccc(C(=O)COC(=O)c2ccc(N3C(=O)C4C5C=CC(C6CC56)C4C3=O)cc2)cc1 (centres undefined) in your reply.
a: 9

q: Supply measured inhibition of COc1ccc(/C=C/C(=O)c2ccc(I)cc2)cc1 in your reply.
a: 8

q: Supply measured inhibition of CC(C)=NNC(=O)C(=O)Nc1cccc(Cl)c1 in your reply.
a: 10

q: Supply measured inhibition of Cc1ccc(C(=O)NC(=S)Nc2ccc(-c3nc4ccccc4s3)cc2)cc1C in your reply.
a: 35
